Below, each entry is listed alongside its reported TGI.
# System: SK-MEL-28 melanoma
# Assay Info: NCI tumour cell line growth inhibition, 48 h

{"Molecule": "C#Cc1ccc(-n2c(/C=C/c3cc(OC)c(OC)c(OC)c3)nc3ncccc3c2=O)cc1", "TGI": "> 100 µM"}
{"Molecule": "COC(=O)CNC(=O)/C=C/[C@H](O[Si](C)(C)C(C)(C)C)[C@H](/C=C/C(=O)NCC(=O)OC)O[Si](C)(C)C(C)(C)C", "TGI": "> 25 µM"}
{"Molecule": "COC1=CC2(C=CC1=O)CCN=c1c(O)c3c(c(O)c12)=NC=N3 (centres undefined)", "TGI": "> 100 µM"}
{"Molecule": "Cc1cnc2[nH]c(-c3ccccc3)cc(=O)c2c1", "TGI": "> 100 µM"}
